test system: W2; test: qHTS profiling for inhibitors of Plasmodium falciparum proliferation (AID 504749); also: nearly all actives have a fitted effect of over 60% in size; also: potency is read from the fitted curve at half-maximal effect; details: P. falciparum in erythrocytes, SYBR Green DNA, 72 h; series mostly up to 28.7 µM
Inconclusive results are not listed. Active and inactive are the calls of the source. Calls follow the shape of the dose curve; as a rule, active = well fitted inhibition curve with a large enough effect; inconclusive = small, poorly fitted or top-dose-only effect; inactive = flat fitted curve, though single readings scatter. Numbered stars: 1 amine (or outer) side, 2 acyl side, 3 side chain; on linkers, the order of the positions; unused ones are H or OH. Bridge positions count the residues as written; N and C are the ends. Square brackets hold non-standard residues; d marks the D form. Peptide text beside a SMILES is read from it. * marks the point of attachment. ξ: configuration not given here. ΔAla(Z-3-ureido) = NC(=O)N/C=C(\N)C(=O)O; X1 = NC1=NCCC(C(N[*:1])C(=O)[*:2])N1; ξβ3hOrn = NCCCC(N)CC(=O)*; Orn = NCCC[CH](N)C(=O)O; Dap = NC[CH](N)C(=O)O
measurementLabel: Potency

{"compound": "CNCC(=O)NC(CCCN=C(N)N)C(=O)NC(C(=O)NC(Cc1ccc(O)cc1)C(=O)NC(C(=O)NC(Cc1cnc[nH]1)C(=O)N1CCCC1C(=O)NC(C)C(=O)O)C(C)C)C(C)C (stereo not given)", "measurementLabel": "Potency", "valueObserved": "inactive"}
{"compound": "CC(N)C(=O)NCC(=O)NC1CSSCC(C(=O)O)NC(=O)C(CO)NC(=O)C(C(C)O)NC(=O)C(Cc2ccccc2)NC(=O)C(C(C)O)NC(=O)C(CCCCN)NC(=O)C(Cc2c[nH]c3ccccc23)NC(=O)C(Cc2ccccc2)NC(=O)C(Cc2ccccc2)NC(=O)C(CC(N)=O)NC(=O)C(CCCCN)NC1=O (stereo not given)", "measurementLabel": "Potency", "valueObserved": "inactive"}
{"compound": "Cn1cc(O)nc1NC(=O)Nc1cccc(Cl)c1", "measurementLabel": "Potency", "valueObserved": "inactive"}
{"compound": "NCCCC(N)CC(=O)NCC1NC(=O)C(CO)NC(=O)C(N)CNC(=O)C(C2CCN=C(N)N2)NC(=O)/C(=C/NC(N)=O)NC1=O (stereo not drawn) (H-[Dap]S[Dap](ξβ3hOrn)[ΔAla(Z-3-ureido)][X1]; lactam 1-C; configuration not given here)", "measurementLabel": "Potency", "valueObserved": "inactive"}
{"compound": "CC(=O)OCC1=C(C(=O)O)N2C(=O)C(NC(=O)Cc3ccccc3)C2SC1 (stereo not given)", "measurementLabel": "Potency", "valueObserved": "inactive"}
{"compound": "CC(C)C[C@H](NC(=O)[C@@H](Cc1c[nH]c2ccccc12)NC(=O)[C@@H](Cc1ccc(O)cc1)NC(=O)[C@@H](CO)NC(=O)[C@@H](Cc1c[nH]c2ccccc12)NC(=O)C(Cc1cnc[nH]1)NC(=O)C1CCC(=O)N1)C(=O)N[C@@H](CCCN=C(N)N)C(=O)N1CCC[C@@H]1C(=O)NCC(N)=O (stereo not given in full)", "measurementLabel": "Potency", "valueObserved": "inactive"}
{"compound": "CC(C)CC1NC(=O)C(CCCN)NC(=O)C(C(C)C)NC(=O)C2CCCN2C(=O)C(Cc2ccccc2)NC(=O)C(CC(C)C)NC(=O)C(CCCN)NC(=O)C(C(C)C)NC(=O)C2CCCN2C(=O)C(Cc2ccccc2)NC1=O (stereo not given) (cyclo(FPV[Orn]LFPV[Orn]L); configuration not given here)", "measurementLabel": "Potency", "valueObserved": "0.2 nM (active)"}
{"compound": "CC(C)CC(NC(=O)C(COC(C)(C)C)NC(=O)C(Cc1ccc(O)cc1)NC(=O)C(CO)NC(=O)C(Cc1c[nH]c2ccccc12)NC(=O)C(Cc1cnc[nH]1)NC(=O)C1CCC(=O)N1)C(=O)NC(CCCN=C(N)N)C(=O)N1CCCC1C(=O)NNC(N)=O (stereo not given)", "measurementLabel": "Potency", "valueObserved": "inactive"}
{"compound": "CCC(C)C1NC(=O)C(Cc2ccc(O)cc2)NC(=O)C(N)CSSCC(C(=O)N2CCCC2C(=O)NC(CC(C)C)C(=O)NCC(N)=O)NC(=O)C(CC(N)=O)NC(=O)C(CCC(N)=O)NC1=O (stereo not given)", "measurementLabel": "Potency", "valueObserved": "inactive"}
{"compound": "O=C(OCC1OC(OC(=O)c2cc(O)c(O)c(OC(=O)c3cc(O)c(O)c(O)c3)c2)[C@@H](OC(=O)c2cc(O)c(O)c(OC(=O)c3cc(O)c(O)c(O)c3)c2)C(OC(=O)c2cc(O)c(O)c(OC(=O)c3cc(O)c(O)c(O)c3)c2)C1OC(=O)c1cc(O)c(O)c(OC(=O)c2cc(O)c(O)c(O)c2)c1)c1cc(O)c(O)c(OC(=O)c2cc(O)c(O)c(O)c2)c1 (stereo not given in full)", "measurementLabel": "Potency", "valueObserved": "1510 nM (active)"}
